Target: ZFP SBS#1037 (synthetic)
Sequence (chain, as listed by the source): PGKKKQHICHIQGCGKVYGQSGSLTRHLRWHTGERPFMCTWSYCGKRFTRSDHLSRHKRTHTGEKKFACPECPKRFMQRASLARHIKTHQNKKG
Assay: EMSA
Conditions: tags: MBP fusion
readoutType: Kd (nM)
I only need the number, in nM, no unit after it.

Q. I would be grateful if you could share the reported Kd for GTAGGGGCA (dsDNA) DNA 1: GTAGGGGCA DNA 2: TGCCCCTAC .
A. 0.05
